experiment-notes: qHTS assay to identify small molecule agonists of the estrogen related receptor signaling pathway with the pleiotropic PPARgamma coactivator (PGC) from Tox21 10K library (AID 1224842); further: nearly all actives have a fitted effect of over 15% in size
setup-conditions: PGC/ERR reporter cell line, luciferase ONE-Glo, 18 h; series mostly up to 92.4 µM
Inconclusive results are not listed. The source made the active and inactive calls. The call rests on the fitted dose curve; in most records, active means well fitted activation curve with a large enough effect in the repeat runs; inconclusive means weak or mixed curves, or effect the other way; inactive means no such curve, though single readings can be large or run the other way.
Your response should consist of one outcome taken from active, inactive

{"molecule": "CNCc1cc(F)ccc1Oc1ccc(Cl)c(Cl)c1", "answer-label": "inactive"}

Then there is this molecule:
Any idea what this test logged for O=C(Nc1cccc([N+](=O)[O-])c1)c1cc2ccccc2cc1O ?
inactive

###

experiment-notes: qHTS assay to identify small molecule antagonists of the estrogen related receptor (ERR) signaling pathway from Tox21 library - cell viability counter screen (AID 1224834); further: nearly all actives have a fitted effect of over 30% in size; further: potency means the concentration at half of the fitted maximal effect
setup-conditions: ERR reporter cells viability, CellTiter-Fluor, 17.5 h; series mostly up to 92.4 µM
Inconclusive results are not listed. Calls of active or inactive are those of the source. Calls come from the whole dose curve; as a rule, active = well fitted cell-killing curve with a large enough effect in the repeat runs; inconclusive = weak or mixed curves; inactive = flat fitted curve, though single readings scatter.
quantity-kind: Potency

{"compound": "C[n+]1cc2c3c(ccc2c2ccc4cc5c(cc4c21)OCO5)OCO3", "quantity-kind": "Potency", "readout-value": "2.91 µM (active)"}
{"compound": "Fc1ccc(C(c2ccc(F)cc2)N2CCN(C/C=C/c3ccccc3)CC2)cc1", "quantity-kind": "Potency", "readout-value": "26.6 µM (active)"}
{"compound": "Cc1cccc(N(C)C(=S)Oc2ccc3c(c2)C2CCC3C2)c1 (stereo not given)", "quantity-kind": "Potency", "readout-value": "inactive"}
{"compound": "CCN(CCC#N)c1ccc(N=Nc2c(Cl)cc([N+](=O)[O-])cc2Cl)cc1", "quantity-kind": "Potency", "readout-value": "15.4 µM (active)"}

Give reported Potency value for O=C1C=CC(=O)N1
49.8 µM (active)

Answer with the recorded Potency for the compound listed here: N#CSc1ccc(N)c([N+](=O)[O-])c1
54.8 µM (active)

Return value of Potency for input CCCCCCCC/C=C/CCCCCCCC1=NCCN1CCO , no commentary.
54.5 µM (active)

Give the measured Potency for O=Cc1cc(O)ccc1Br
inactive

Report Potency for CCOc1nc2cccc(C(=O)OC(C)OC(=O)OC3CCCCC3)c2n1Cc1ccc(-c2ccccc2-c2nn[nH]n2)cc1 (stereo not given)
54.4 µM (active)

Complete the entry with Potency for O=C(Nc1cccc(Cl)c1)OCC#CCCl
54.5 µM (active)

Given the compound On1ccccc1=S , write its reported Potency.
1.71 µM (active)

For CCCCCCCC/C=C\CCCCCCCCOCCO , write its Potency.
35.5 µM (active)

Consider the compound CN(C)CCCOC1(Cc2ccccc2)CCCCCC1 and give its recorded Potency.
inactive

Please report the measured Potency for C=CC(=O)OCC(CO)(COCC(COC(=O)C=C)(COC(=O)C=C)COC(=O)C=C)COC(=O)C=C
4.8 µM (active)

Please indicate Potency recorded for CCOC(=O)O[C@]1(C(=O)OCCl)CC[C@H]2[C@@H]3CCC4=CC(=O)C=C[C@]4(C)[C@H]3[C@@H](O)C[C@@]21C
inactive

Name the recorded Potency of the compound listed here: CCCCCCCCNC(C)C(O)c1ccc(SC(C)C)cc1 (stereo not given)
26.6 µM (active)

Fill in reported Potency for this entry: CCCCCCC[N+](CC)(CC)CCCCc1ccc(Cl)cc1
23.7 µM (active)

Let me know recorded Potency for Oc1ccc(N=Nc2ccccc2)cc1 , thanks.
49.2 µM (active)

Please indicate Potency recorded for CCN(Cc1cccnc1)C(=O)c1cccc(Cl)c1[C@]1(C)C(=O)N(Cc2ccc(OC)cc2OC)c2ccc(Cl)cc21
28.6 µM (active)

Indicate the recorded Potency value for this compound: O=C1CCCCCN1SSN1CCCCCC1=O
inactive

Recall and state the measured Potency for O=C(NO)C1(NS(=O)(=O)c2ccc(Oc3ccc(F)cc3)cc2)CCOCC1 .
inactive

// fetch Potency given entry CN1CCN(CCC(=O)N2c3ccccc3Sc3ccc(C(F)(F)F)cc32)CC1
29.8 µM (active)

Return value of Potency for input CC(C)(C)C(=O)OCOC(=O)[C@@H]1N2C(=O)[C@@H](NC(=O)[C@H](N)c3ccccc3)[C@H]2SC1(C)C , no commentary.
inactive

Please report Potency for the following compound: CNc1ccc(O)cc1
43.2 µM (active)
